Values from patent US20240018237A1

TARGET OR TEST SYSTEM: T1, human ROR1 (full-length, on the cell surface) (human, UniProt Q01973 30-937)
T1 construct: whole, on cells; the tumour cell lines carry their own ROR1; also called Ba/F3-ROR1 cells; Jeko-1
T1 sequence (Q01973 30-937): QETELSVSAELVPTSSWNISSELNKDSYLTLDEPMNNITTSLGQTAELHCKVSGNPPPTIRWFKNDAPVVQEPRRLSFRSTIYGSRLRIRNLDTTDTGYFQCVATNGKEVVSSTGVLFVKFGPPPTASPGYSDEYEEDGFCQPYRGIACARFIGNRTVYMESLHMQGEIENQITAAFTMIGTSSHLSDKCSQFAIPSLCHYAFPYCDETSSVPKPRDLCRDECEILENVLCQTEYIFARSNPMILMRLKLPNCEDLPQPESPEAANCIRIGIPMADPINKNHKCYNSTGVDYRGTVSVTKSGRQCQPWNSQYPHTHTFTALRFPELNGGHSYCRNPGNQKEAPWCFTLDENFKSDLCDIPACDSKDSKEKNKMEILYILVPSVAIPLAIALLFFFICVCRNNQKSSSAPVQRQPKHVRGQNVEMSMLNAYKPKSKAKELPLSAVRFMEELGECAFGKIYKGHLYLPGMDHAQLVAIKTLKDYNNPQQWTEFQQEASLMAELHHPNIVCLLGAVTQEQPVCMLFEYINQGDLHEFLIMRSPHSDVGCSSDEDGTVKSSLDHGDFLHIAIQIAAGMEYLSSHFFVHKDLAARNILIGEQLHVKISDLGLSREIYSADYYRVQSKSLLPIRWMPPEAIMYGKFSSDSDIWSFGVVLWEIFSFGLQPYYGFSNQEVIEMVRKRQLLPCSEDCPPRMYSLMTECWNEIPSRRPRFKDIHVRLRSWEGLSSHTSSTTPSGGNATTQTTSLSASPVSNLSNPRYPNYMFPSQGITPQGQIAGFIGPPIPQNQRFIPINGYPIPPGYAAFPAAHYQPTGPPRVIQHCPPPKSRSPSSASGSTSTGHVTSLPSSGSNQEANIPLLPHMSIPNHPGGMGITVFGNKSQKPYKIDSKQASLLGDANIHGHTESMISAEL
RUN DESCRIPTION: flow cytometry, A549 cells
Would you mind telling me the reported pEC50 of each entry?
Give bare numbers, as −log10 of the molar value.

| BINDER | pEC50 |
| --- | --- |
| 19F6-Hu35V9 (antibody, human IgG1, kappa, V domains shown, humanized, human IgG1 / kappa) VH: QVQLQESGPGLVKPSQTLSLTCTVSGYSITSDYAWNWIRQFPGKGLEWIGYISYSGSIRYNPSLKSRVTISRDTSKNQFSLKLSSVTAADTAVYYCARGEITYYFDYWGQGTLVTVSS VL: ETTLTQSPAFMSATPGDKVTISCKASTSIDDDMNWYQQKPGKPPKLIISEGNTLRPGIPPRFSSSGYGTDFTFTIRKIESEDAADYYCLQSNDLPLTFGQGTKLEIKR | 9.85 |
| 19F6-Hu25 (antibody, human IgG1, kappa, V domains shown, humanized, human IgG1 / kappa) VH: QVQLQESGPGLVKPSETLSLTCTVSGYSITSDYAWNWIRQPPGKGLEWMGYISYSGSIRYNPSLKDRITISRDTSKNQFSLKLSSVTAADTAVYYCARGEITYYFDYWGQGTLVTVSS VL: ETTLTQSPAFMSATPGDKVTISCKASTDIDDDMNWYQQKPGEPPKLIISEGNTLRPGIPPRFSSSGYGTDFTFTINNIESEDAADYYCLQSNDLPLTFGQGTKLEIKR | 9.89 |
| 38F8-Hu67 (antibody, human IgG1, kappa, V domains shown, humanized, human IgG1 / kappa) VH: QVQLVESGGGLVKPGGSLRLSCAASGFTFSNYAMSWVRQAPEKRLEWVASISSGGPTYYPDSVKGRFTISRDNAKNSLYLQMNSLRAEDTAVYYCARGYRYDVNWYFDVWGAGTMVTVSS VL: DIQMTQSPSSLSASVGDRVTITCQASQDISNYLTWFQQKPGKSPKTLIHRANRLVTGVPSRFSGSGSGTDYTFTISSLQPEDIAIYYCLQYDEFPYTFGGGTKVEIKR | 9.40 |
| 38F8-Hu66 (antibody, human IgG1, kappa, V domains shown, humanized, human IgG1 / kappa) VH: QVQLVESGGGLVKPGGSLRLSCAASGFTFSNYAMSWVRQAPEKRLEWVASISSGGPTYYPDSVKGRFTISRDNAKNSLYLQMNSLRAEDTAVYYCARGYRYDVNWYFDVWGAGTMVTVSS VL: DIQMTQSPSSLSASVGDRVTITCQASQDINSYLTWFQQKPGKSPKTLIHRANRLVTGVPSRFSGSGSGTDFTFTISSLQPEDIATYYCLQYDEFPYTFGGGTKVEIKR | 9.46 |

Please fill in: pEC50 reported for 3D8-Hu46 (antibody, human IgG1, kappa, V domains shown, humanized, human IgG1 / kappa) VH: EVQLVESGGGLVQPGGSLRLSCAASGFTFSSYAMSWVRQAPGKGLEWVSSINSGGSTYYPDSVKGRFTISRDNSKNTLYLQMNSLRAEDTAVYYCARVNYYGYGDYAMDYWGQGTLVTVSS VL: DIQMTQSPSSLSASVGDRVTITCQASQDINSYLSWFQQKPGKSPKTLIYRANRLVTGVPSRFSGSGSGTDYTFTISSLQPEDIATYYCLQYDEFPYTFGGGTKLEIKR = 9.70
